Data provenance is patent US9855265B2.

# target.desc: ARAF (Homo sapiens)
# Sequence (P10398 whole entry): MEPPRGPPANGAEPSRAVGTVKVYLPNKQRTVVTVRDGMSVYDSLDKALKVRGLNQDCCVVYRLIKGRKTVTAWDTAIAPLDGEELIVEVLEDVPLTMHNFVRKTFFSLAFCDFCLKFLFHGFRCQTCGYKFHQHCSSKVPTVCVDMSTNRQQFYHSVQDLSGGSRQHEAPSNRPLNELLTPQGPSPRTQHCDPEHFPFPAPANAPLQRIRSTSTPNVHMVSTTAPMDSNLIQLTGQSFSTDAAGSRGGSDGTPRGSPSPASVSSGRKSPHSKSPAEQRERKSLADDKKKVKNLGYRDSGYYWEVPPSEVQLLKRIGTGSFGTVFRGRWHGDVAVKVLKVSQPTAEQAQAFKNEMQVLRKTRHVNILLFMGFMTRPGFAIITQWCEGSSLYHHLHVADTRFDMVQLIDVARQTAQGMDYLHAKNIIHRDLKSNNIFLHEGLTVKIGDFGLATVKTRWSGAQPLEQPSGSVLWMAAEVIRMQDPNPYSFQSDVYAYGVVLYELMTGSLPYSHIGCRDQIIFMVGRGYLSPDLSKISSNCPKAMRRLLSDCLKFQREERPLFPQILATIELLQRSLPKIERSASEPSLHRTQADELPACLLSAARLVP
pIC50: −log10 of the molar value.

- smiles.notation: "Nc1c(N2CCN(C3CCCCC3)CC2)cc(Nc2ccc(C(=O)O)cc2)c2c1C(=O)c1ccccc1C2=O"
  pIC50: "< 5.00"

====

# target.desc: PKCbetaI (Homo sapiens)
# Sequence (P05771 whole entry): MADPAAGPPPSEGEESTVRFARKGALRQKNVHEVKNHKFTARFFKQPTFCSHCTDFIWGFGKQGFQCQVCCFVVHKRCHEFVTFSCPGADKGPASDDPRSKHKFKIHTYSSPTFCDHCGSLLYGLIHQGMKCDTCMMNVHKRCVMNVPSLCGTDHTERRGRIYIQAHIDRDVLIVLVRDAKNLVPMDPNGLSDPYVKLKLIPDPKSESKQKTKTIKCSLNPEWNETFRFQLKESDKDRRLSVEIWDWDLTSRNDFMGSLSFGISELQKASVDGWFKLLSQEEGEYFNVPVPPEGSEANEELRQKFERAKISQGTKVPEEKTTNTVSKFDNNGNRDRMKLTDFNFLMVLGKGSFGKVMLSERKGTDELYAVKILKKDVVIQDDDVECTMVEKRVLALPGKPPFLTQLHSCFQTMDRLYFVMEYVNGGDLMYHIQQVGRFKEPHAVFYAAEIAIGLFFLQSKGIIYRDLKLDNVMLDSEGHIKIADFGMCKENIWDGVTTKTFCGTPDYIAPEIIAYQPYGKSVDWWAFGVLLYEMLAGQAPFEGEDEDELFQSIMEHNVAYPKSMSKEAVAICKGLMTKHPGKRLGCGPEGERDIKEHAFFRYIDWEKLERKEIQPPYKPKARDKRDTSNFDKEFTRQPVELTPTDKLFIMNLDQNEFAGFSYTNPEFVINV
pIC50: −log10 of the molar value.

- compound: "Nc1c(N2CCN(C3CCCCC3)CC2)cc(Nc2ccc(C(=O)O)cc2)c2c1C(=O)c1ccccc1C2=O [Compound 12]"
  target.desc: "PKCbetaI (Homo sapiens)"
  pIC50: "< 5.00"

====

# target.desc: MUSK (Homo sapiens, UniProt O15146)
# Construct: other kinases of recombinant human cytoplasmic domain
# Sequence (O15146 517-869 limits assumed): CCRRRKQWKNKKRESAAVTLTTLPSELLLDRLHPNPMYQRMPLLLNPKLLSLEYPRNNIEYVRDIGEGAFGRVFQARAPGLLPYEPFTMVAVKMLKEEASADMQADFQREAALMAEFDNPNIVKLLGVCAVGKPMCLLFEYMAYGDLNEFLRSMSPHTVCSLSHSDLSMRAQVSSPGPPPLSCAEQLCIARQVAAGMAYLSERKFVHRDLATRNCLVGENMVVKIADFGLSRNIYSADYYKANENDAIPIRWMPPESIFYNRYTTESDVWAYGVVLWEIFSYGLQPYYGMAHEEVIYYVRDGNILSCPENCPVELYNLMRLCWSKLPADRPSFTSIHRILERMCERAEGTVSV
# method.summary: radiometric kinase assay, other kinases: MUSK
# experimental.setup: duplicate

- molecule: "Nc1c(N2CCN(C3CCCCC3)CC2)cc(Nc2ccc(C(=O)O)cc2)c2c1C(=O)c1ccccc1C2=O [Compound 12]"
  IC50: "> 10 µM"
